Measured Kd of individual entries
Molecular target: GCGR extracellular domain (human, UniProt P47871)
Sequence (P47871 26-477): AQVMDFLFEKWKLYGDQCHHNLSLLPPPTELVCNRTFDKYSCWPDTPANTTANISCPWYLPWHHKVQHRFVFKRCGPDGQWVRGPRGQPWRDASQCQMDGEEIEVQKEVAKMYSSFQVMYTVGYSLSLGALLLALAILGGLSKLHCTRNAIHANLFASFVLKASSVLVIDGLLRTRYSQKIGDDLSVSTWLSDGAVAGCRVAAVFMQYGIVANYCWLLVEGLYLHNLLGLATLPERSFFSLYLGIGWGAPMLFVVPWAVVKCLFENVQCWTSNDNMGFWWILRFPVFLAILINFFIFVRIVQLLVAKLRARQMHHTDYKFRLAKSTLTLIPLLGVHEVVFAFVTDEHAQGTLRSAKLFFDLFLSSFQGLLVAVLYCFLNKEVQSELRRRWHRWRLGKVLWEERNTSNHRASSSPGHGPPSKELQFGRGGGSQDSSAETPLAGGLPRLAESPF
Assay: SPR
Hi! Could you send only the number? It should be in nM, unit omitted.

1. VH W100aL (antibody, V domains shown) VH: EVQLVESGGGLVQPGGSLRLSCAASGFNIYYNYIHWVRQAPGKGLEWVAEFSPYSGSTYYADSVKGRFTISADTSKNTAYLQMNSLRAEDTAVYYCARSAAIVDLYDYFKGFDYWGQGTLVTVSS VL: DIQMTQSPSSLSASVGDRVTITCRASQSVSSAVAWYQQKPGKAPKLLIYSASSLYSGVPSRFSGSRSGTDFTLTISSLQPEDFATYYCQQYGSYLYTFGQGTKVEIK: 5.24
2. anti-GCGR IgG1 parent (antibody, V domains shown) VH: EVQLVESGGGLVQPGGSLRLSCAASGFNIYYNYIHWVRQAPGKGLEWVAEFSPYSGSTYYADSVKGRFTISADTSKNTAYLQMNSLRAEDTAVYYCARSAAIVDWYDYFKGFDYWGQGTLVTVSS VL: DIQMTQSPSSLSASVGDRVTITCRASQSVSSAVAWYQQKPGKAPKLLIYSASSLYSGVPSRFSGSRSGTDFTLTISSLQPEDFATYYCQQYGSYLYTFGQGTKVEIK: 2.53

The record that follows has no Kd shown yet.
Lookup result for VH Y100bR (antibody, V domains shown) VH: EVQLVESGGGLVQPGGSLRLSCAASGFNIYYNYIHWVRQAPGKGLEWVAEFSPYSGSTYYADSVKGRFTISADTSKNTAYLQMNSLRAEDTAVYYCARSAAIVDWRDYFKGFDYWGQGTLVTVSS VL: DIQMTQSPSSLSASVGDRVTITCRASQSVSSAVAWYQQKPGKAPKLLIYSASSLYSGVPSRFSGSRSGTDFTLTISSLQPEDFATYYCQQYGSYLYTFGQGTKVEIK ; measured Kd: 7.08

Values were extracted from patent US20260317437.
